Biological target: Neuropilin-1 (Homo sapiens) (UniProt O14786)
Sequence (O14786 whole entry, looked up): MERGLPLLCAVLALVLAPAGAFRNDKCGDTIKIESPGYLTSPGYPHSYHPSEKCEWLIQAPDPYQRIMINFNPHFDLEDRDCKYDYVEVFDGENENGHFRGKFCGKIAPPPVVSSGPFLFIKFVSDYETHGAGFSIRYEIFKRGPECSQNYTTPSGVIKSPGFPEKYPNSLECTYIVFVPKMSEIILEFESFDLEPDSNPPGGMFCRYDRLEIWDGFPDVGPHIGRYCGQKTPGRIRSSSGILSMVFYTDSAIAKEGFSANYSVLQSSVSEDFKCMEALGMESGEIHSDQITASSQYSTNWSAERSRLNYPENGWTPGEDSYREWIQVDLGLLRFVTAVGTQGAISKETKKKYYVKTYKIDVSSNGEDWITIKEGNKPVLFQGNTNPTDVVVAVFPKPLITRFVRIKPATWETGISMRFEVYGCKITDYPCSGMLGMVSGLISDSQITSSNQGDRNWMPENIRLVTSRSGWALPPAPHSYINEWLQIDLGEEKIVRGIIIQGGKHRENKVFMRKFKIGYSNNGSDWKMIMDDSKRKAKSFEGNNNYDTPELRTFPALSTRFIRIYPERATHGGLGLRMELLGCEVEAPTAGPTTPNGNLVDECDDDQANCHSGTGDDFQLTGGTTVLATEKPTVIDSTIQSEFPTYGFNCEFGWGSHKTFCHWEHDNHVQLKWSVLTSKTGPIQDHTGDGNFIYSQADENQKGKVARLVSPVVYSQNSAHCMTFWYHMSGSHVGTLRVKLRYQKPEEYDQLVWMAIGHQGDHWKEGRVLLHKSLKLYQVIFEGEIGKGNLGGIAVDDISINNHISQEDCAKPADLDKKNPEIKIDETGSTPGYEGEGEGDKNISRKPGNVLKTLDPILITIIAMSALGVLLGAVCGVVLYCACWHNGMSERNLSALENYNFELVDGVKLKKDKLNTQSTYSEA
Test: NRP-1/CendR peptide interaction modulators – biochemical, fluorescence polarization, uHTS, primary screen (AID 602438)
Conditions: FAM-RPARPAR peptide binding to NRP-1, fluorescence polarization; at 25 µM
Among all 360,000 compounds or so, about 3,100 (0.86%) were called active.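 Rule for the calls: active = inhibition or corrected inhibition above about 18%, plus a signal ratio from 0.5 to 1.5 (limit read from the data, passing the limit was not always enough); inactive = the rest.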 Shown is part of a subset that was picked to be rich in actives.
Form entry, call: pick from active, inactive

Solved cases below.
* CC(C)COC(=O)C1C2C=CC3(CN(C(C)c4ccc(Br)cc4)C(=O)C13)O2 (stereo unspecified) | active
* Cc1cccc(C)c1NC(=O)C1(N(C(=O)c2ccccn2)c2ccc(O)cc2)CCCCC1 | inactive

Inquiry: Test call for this compound, please: CNS(=O)(=O)c1cccc(C(=O)NC2CCCc3ccccc32)c1 (stereo unspecified)
Reply text: inactive

Inquiry: Test call for this compound, please: COc1ccc(Nc2nc(-c3cccnc3)nc3ccccc23)cn1
Reply text: active

Inquiry: Test call for this compound, please: O=C(CCN1CCCO1)N1CCCC(N2CCN(c3cccc(C(F)(F)F)c3)CC2)C1 (stereo unspecified)
Reply text: inactive

Inquiry: Test call for this compound, please: Cc1cc(N2C(=O)c3ccc(C(=O)NCc4ccccc4)cc3C2=O)no1
Reply text: inactive
